Reference source: the supplement of paper PMC11451515

# Test system: P12-Ichikawa
# Test name: cell viability relative to DMSO control; higher = less cytotoxic
# Assay context: RPMI 5 mM glucose + 10% FBS; 48 h; 15.4 µM
Give cell viability for every item shown.
Express your answer in %, writing the number without its unit.

Which measured cell viability value corresponds to CC(C)C(C)/C=C/C(C)C1CCC2C3=CC=C4CC(O)CCC4(C)C3CCC21C (stereo not drawn) ?
94.5

What value of cell viability has been recorded for this entry: CCCCCOC(=O)NC\1=N\C(=O)N(\C=C1F)[C@@H]2O[C@H](C)[C@@H](O)[C@H]2O
77.3

Give the measured cell viability of Cc1ccccc1N1C(=O)c2cc([S+](N)(=O)[O-])c(Cl)cc2NC1C (stereo not drawn) .
98.3
